Quick reference for CC50 among some molecules
# PROTOCOL SUMMARY: in vitro
# STATED CONDITIONS: human, HEK293 Cytotoxicity LC50, HEK293 + BioActivator, co-cultured 24 hours with BioActivators; Mean ± SD (N = 3); max 250 μM
Please respond with the number in µM and leave the unit unwritten.

Input line: So what's the measured CC50 for this one? COc1cccc2c1C(=O)c1c(O)c3c(c(O)c1C2=O)C[C@@](O)(C(=O)CO)C[C@@H]3O[C@H]1C[C@H](N)[C@H](O)[C@H](C)O1 [Doxorubicin]
Output line: 59

Here's the next entry for you.
Input line: So what's the measured CC50 for this one? Nc1cc2c3ccccc3ccc2c2ccccc12 [6-Aminochrysene]
Output line: 84

###

# PROTOCOL SUMMARY: in vitro
# STATED CONDITIONS: human, HEK293 Cytotoxicity LC50, HEK293 + BioActivator Pre-Conditioned Media
Quick reference for CC50 among some molecules

Past entries and their recorded results:
Input line: So what's the measured CC50 for this one? O=P1(N(CCCl)CCCl)NCCCO1 (stereo not drawn) [Cyclophosphamide]
Output line: > 250 µM

Input line: So what's the measured CC50 for this one? `O=[N+]([O-])c1ccc(O)cc1`
Output line: 199 µM

Here's the next entry for you.
Input line: So what's the measured CC50 for this one? C=CC(N)=O [Acrylamide]
Output line: > 250 µM

###

Quick reference for CC50 among some compounds
# PROTOCOL SUMMARY: in vitro
# STATED CONDITIONS: human

Past entries and their recorded results:
Input line: So what's the measured CC50 for this one? c1ccc2c(c1)cc1ccc3cccc4ccc2c1c34 [Benzo[a]pyrene]
Output line: > 250 µM

Input line: So what's the measured CC50 for this one? `O=[N+]([O-])c1ccc(O)cc1`
Output line: > 250 µM

Input line: So what's the measured CC50 for this one? C=CC(N)=O [Acrylamide]
Output line: > 250 µM

Continuing:
Input line: So what's the measured CC50 for this one? `COc1cccc2c1C(=O)c1c(O)c3c(c(O)c1C2=O)C[C@@](O)(C(=O)CO)C[C@@H]3O[C@H]1C[C@H](N)[C@H](O)[C@H](C)O1`
Output line: 104 µM

Input line: So what's the measured CC50 for this one? `Nc1cc2c3ccccc3ccc2c2ccccc12`
Output line: > 250 µM

Input line: So what's the measured CC50 for this one? O=P1(N(CCCl)CCCl)NCCCO1 (stereo not drawn) [Cyclophosphamide]
Output line: > 250 µM

###

# Tested on: primary human hepatocytes
MEASUREMENT TYPE: CC50

Input line: So what's the measured CC50 for this one? `Nc1ccc2ccccc2c1`
Output line: > 250 µM

###

# PROTOCOL SUMMARY: in vitro
# STATED CONDITIONS: human, HEK293 Cytotoxicity LC50, HEK 293 + Cell Free Agarose Bead Pre-Conditioned Media
MEASUREMENT TYPE: CC50

Input line: So what's the measured CC50 for this one? C=CC(N)=O [Acrylamide]
Output line: > 250 µM

Input line: So what's the measured CC50 for this one? `O=[N+]([O-])c1ccc(O)cc1`
Output line: > 250 µM

Here's the next entry for you.
Input line: So what's the measured CC50 for this one? O=P1(N(CCCl)CCCl)NCCCO1 (stereo not drawn) [Cyclophosphamide]
Output line: > 250 µM

Hello, the source for this data is patent US11376580B2, in case you need it.
